Molecular target: Kinesin-like protein KIF11 (Homo sapiens)
Sequence (whole entry): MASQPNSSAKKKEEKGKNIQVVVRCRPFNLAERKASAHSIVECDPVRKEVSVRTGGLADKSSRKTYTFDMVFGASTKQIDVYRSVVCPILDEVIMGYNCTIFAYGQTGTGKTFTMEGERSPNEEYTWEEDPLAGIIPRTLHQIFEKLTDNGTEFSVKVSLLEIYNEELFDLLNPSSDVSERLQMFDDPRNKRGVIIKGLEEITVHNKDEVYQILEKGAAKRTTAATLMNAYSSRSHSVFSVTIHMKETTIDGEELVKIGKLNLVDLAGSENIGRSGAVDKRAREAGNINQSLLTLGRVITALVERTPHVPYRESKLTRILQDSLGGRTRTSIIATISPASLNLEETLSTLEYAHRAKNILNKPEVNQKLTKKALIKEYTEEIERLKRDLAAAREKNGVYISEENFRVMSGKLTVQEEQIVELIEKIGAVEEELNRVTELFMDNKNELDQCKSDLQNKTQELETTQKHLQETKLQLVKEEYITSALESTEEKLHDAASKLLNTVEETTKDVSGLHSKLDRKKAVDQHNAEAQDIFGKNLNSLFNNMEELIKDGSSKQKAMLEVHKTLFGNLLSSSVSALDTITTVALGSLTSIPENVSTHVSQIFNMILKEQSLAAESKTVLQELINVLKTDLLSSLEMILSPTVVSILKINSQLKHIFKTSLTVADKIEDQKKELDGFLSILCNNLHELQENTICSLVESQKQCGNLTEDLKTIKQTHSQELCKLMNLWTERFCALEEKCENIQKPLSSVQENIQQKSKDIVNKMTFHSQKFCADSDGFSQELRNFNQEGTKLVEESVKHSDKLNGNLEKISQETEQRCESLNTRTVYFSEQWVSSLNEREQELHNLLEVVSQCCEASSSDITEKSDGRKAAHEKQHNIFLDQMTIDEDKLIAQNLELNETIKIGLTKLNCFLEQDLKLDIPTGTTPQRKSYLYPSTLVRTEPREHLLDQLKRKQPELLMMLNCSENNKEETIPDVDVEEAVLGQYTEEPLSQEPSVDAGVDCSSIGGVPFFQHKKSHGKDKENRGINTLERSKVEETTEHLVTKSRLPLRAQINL
Experiment: Inhibition of kinasin spindle protein in human HeLa cells assessed as inhibition of induction of mitotic arrest
Type: cell-based
Activity calls are given as the source filed them. The rule behind the calls is not given here.
METRIC_NAME: inhibition

C[C@@]12C[C@@H](c3ccccc3O1)N1CCSC1=N2 :: inactive
C[C@@]12C[C@@H](c3ccccc3O1)n1nnnc1N2 :: inactive
C[C@@]12C[C@@H](c3ccccc3O1)n1c(nc3ccccc31)N2 :: inactive
Cc1cc2n(n1)[C@H]1C[C@@](C)(N2)Oc2ccccc21 :: inactive
COC(=O)C1=C(C)Nc2n[nH]c(C)c2C1c1cccc(O)c1 (stereo unspecified) :: inactive
CC1=C2C(=O)Oc3ccccc3C2c2c(n[nH]c2C)N1 (stereo unspecified) :: inactive
